measurement-kind: melting point

1. COc1ccc(CNc2nc(SC)ncc2C(=O)Nc2cncnc2)cc1Cl
238 to 240 °C
2. CCN(CCCCNC(=O)c1ccc2ccccc2c1)C1CCc2ncsc2C1 (stereo not given)
120 °C
3. CC(=O)Nc1nc2ccc(O)cc2n1S(=O)(=O)N(C)C
175 to 176 °C
4. CCCNCCc1ccc(NS(=O)(=O)c2ccc(Br)cc2)cc1
141 to 143 °C
5. Cn1cc(C(=O)c2ccncc2)cc1C(=O)c1ccccc1
127 to 129 °C
6. CCCCCN(CCC12CC3CC(CC(C3)C1)C2)C(=O)NCCCCc1ccncc1
74.1 to 78.1 °C
7. Cc1cccc(C(=O)CC(Cc2ccccc2)C(=O)O)c1 (stereo not given)
158 to 161 °C
8. CC(C)C[C@@H](OS(=O)(=O)c1ccc([N+](=O)[O-])cc1)C(=O)O
60 to 62 °C
9. CCOCCn1nc(-c2cc(C(C)(C)C)c(O)c(C(C)(C)C)c2)c2cccnc21
86 to 88 °C
10. O=C(CCc1ccccc1)Oc1n[nH]c(=O)c2nc3cc(Cl)ccc3c(O)c12
> 300 °C

====

Parameter: melting point. Scope: all listed entries.
measurement-kind: melting point

1. Cc1ncnc(C)c1C(=O)O
203 to 204 °C
2. Cc1c(C(=O)Nc2ccc(N3CCN(CCO)CC3)c(C#N)c2)cnn1C
228 to 230 °C
3. O=C(CN1CCCC1=O)N1CCN(C(=O)CN2CC(c3ccc(Cl)cc3)CC2=O)CC1 (configuration not stated)
224 to 226 °C
4. COc1ccc(-c2nn(CC3CCCC3)c(=O)cc2-c2ccncc2)cc1
119 to 120 °C
5. CC(C)(C)C(O)c1cncnc1 (configuration not stated)
94 to 96 °C
6. S=C1CC(c2ccccc2)=Nc2ccccc2N1
228 to 230 °C
7. CC(C)c1ccc2c(c1)C(=O)N(C)C(c1ccc(C(C)(C)C)cc1)C2 (configuration not stated)
103 to 106 °C
8. N#CCC1COc2ccccc2O1 (configuration not stated)
66 to 67 °C
9. COc1cc(COc2cc(/C=C/C(=O)O)n(-c3ccccc3)n2)ccc1OCc1nc(-c2ccco2)oc1C
191 to 192 °C
10. COc1ccc(N2CCN(CCC3CN(C)C(=O)O3)CC2)cc1 (configuration not stated)
103 to 104 °C
11. CC(=O)OCCc1ccc(C2=NNC(=O)CC2)cc1
94 to 96 °C
12. CCCCN(C1CCCOc2c(C)cc(Cl)cc21)S(=O)(=O)CC (configuration not stated)
83 to 87 °C
13. O=C(Nc1ccc(C(F)(F)F)cc1Cl)[C@H]1[C@H](c2ccccc2)C12CCCC2 (relative stereo)
131 to 133 °C
14. COC(=O)C(C(C)C)S(=O)(=O)N(C(C)=O)c1nc(OC)cc(OC)n1 (configuration not stated)
100 to 102 °C
15. CCCCC(O)CN1N=CCCC1c1ccc(F)cc1 (configuration not stated)
75 to 77 °C
16. O=C(COc1cccnc1)c1ccccc1
81 to 82 °C
17. CC(=O)c1ccccc1-c1cccc(C(=O)O)c1
143 °C
18. Nc1ncc(Sc2cccnc2)s1
140 to 142 °C
19. O=C(Nc1cc(C(=O)O)cc(C(=O)O)c1)Oc1ccc([N+](=O)[O-])cc1
> 300 °C
20. CCOC(=O)CN(N)C(=O)Nc1ccccc1C(=O)C1CCCCC1
108 to 110 °C
21. CC(C)(Oc1ccc(CCC(=O)c2ccc(-c3ccc(C(F)(F)F)cc3)s2)c(F)c1F)C(=O)O
165 to 166 °C
22. Cn1c(=O)[nH]c2cccc(I)c2c1=O
> 300 °C

====

measurement-kind: melting point

1) Cc1ccc(-c2nnc(N3CCC(O)CC3)nc2-c2ccc(C)cc2)cc1
167 to 168 °C
2) CSCC(C)(C)NC(=O)c1c(I)cccc1C(=O)Nc1ccc(Cn2nc(C(F)(F)F)cc2C(F)(F)F)cc1C
83 to 87 °C
3) O=C(O)Cc1ccc(C(=O)C2CCCCC2)cc1
94 to 95.5 °C
4) Cc1oc(-c2ccccc2)nc1CCOc1ccc(C[C@H](NC(=O)C=Cc2ccc(F)cc2F)C(=O)O)cc1
199 to 201 °C
5) O=C1CC[C@@H]2c3ccc(Cl)cc3CCC2N1 (stereo not given in full)
242 °C
6) CC12CC(O)C3(F)C(CCC4=CC(=O)C=CC43C)C1CC=C2SCOC(=O)c1ccccc1 (stereo not given)
220 to 222 °C
7) CCOC(=CC=O)C1CCC2C3CCC4CC(O)CCC4(C)C3C(=O)CC12C (stereo not given)
175 to 178 °C
8) Cc1sc(Cc2ccccc2)c(-c2ccc(-c3ccc(OC(Cc4ccccc4)C(=O)O)cc3)cc2)c1C (stereo not given)
142 to 144 °C
9) CCCCC(=O)c1cc2n(c1)CCc1ccccc1C2=O
135 to 136 °C
10) COc1ccccc1NCN1C(=O)CN(C)C1=O
93 to 96.5 °C
11) C=CCSc1cc(C(=O)O)cc(N)c1C(=O)c1ccccc1
152 to 154 °C
12) CC(C)N1CC2CC(CN(C(=O)Cc3ccc([N+](=O)[O-])cc3)C2)C1
93 to 94 °C
13) COc1cc(C(C)=O)ccc1OCCN1C2CCC1CC(c1n[nH]c3ccccc13)C2 (stereo not given)
154 to 155 °C
14) CCCCC(=O)c1ncc(-c2ccccn2)o1
36 to 37 °C
15) Cc1cccc(-c2[nH]c(C(C)C)nc2-c2cccc(-c3ccc(N)cc3)c2)n1
107 to 117 °C
16) Cc1ccc(-c2nc(Cc3cccc(C=O)c3)c(C)o2)cc1
98 to 99 °C
17) COC(=O)C(=O)c1ccc(OCCOc2ccc(OC)cc2)cc1
114 to 115 °C
18) COc1ccc(S(=O)(=O)C(CC(=O)NO)Cc2ccc(Oc3ccccc3)cc2)cc1 (stereo not given)
65 to 70 °C
19) CCc1ccc(S(=O)(=O)Nc2ccc(Cl)cc2)cc1
120 to 122 °C
20) OCCOCCn1ccc2ncnc(Nc3ccc(Oc4cccc(C(F)(F)F)c4)c(Cl)c3)c21
130 to 132 °C

====

measurement-kind: melting point

1. COC(=O)[C@]1(OS(C)(=O)=O)C[C@H](CC(C)C)[C@@H]2O[C@@H]2C1
120 to 121 °C
2. O=C(O)Cc1ccc(NC(=O)C(COc2ccc(Cl)cc2)NS(=O)(=O)c2ccc(I)cc2)cc1 (racemic)
196 to 198 °C
3. Cc1nnc(-c2ccnc(N)c2)o1
216 to 217 °C
4. O=Cc1cn(C2CCCCC2)nc1-c1ccc([N+](=O)[O-])o1
150 to 151 °C
5. CCN(CC)C(=O)c1nc(-c2ccccc2)c2ccccc2n1
101 °C
6. CS(=O)Cc1nnc(-c2ccc3occ(-c4cccc(OC(F)(F)F)c4)c3c2)o1 (centres undefined)
138 to 139 °C
7. CCOC(=O)c1cc(-c2ccccc2)n(-c2ccc(S(N)(=O)=O)cc2)n1
192 to 195 °C
8. CC(C)(C)NC[C@H](Cc1ccc(OCc2ccccc2)cc1)NC(=O)OC(C)(C)C
77 to 79 °C
9. NS(=O)(=O)c1ccc(-c2c(-c3ccccc3)noc2COCC(F)(F)CO)cc1
93 to 94 °C

====

Parameter: melting point. Scope: all listed entries.
measurement-kind: melting point

1. CCNC(=O)n1nc(Oc2ccc([N+](=O)[O-])c(C(F)(F)F)c2)cc1C
95 to 97 °C
2. Cn1nc2nnsc2c1Br
99 to 101 °C
3. CC(C)(C)OC(=O)NCC(=O)SCC(Cc1ccccc1)C(=O)Nc1cccc(C(=O)O)c1 (configuration not stated)
76 to 80 °C
4. CN(C)Cc1ccc(CSCCNC(=O)C=CC(=O)NCCCOc2cccc(CN3CCCC3)c2)o1
126 to 128 °C
5. Cn1ccnc1SCC(=O)C12CC3CC(CC(C3)C1)C2
65 to 69 °C
6. Cn1c2c(cnc3c(N)cccc32)c(=O)n1C(=O)OC(C)(C)C
> 250 °C
7. O=C(O)c1c(F)cccc1-c1ccccc1
122 to 125 °C
8. Cc1ncoc1C(C)(N)c1ccoc1 (configuration not stated)
82.5 to 83.5 °C
9. Cc1nc(-c2ccc(C(F)(F)F)cc2)sc1CSc1ccc(CC(=O)O)cc1
202 to 203 °C
10. Nc1cc(-c2nnc(SCc3ccc(F)cc3)o2)ccn1
200 to 201 °C
11. Nn1c(-c2ccccc2Cl)nnc1-c1ccccc1C(F)(F)F
172 to 175 °C
12. CC(=O)c1ccc(OCCCOc2cc([N+](=O)[O-])c(C)cc2Br)c(CCC(F)(F)F)c1O
106 to 109 °C
13. CCOC(=O)c1c(CCc2ccc(OC)cc2)nc2c(c1-c1ccc(C(=O)NCc3ccco3)cc1)C(=O)N1CCC[C@H]21
136 °C
14. COc1cnc(CCCOc2cccc(CN3CCCC3)c2)[nH]c1=O
92 to 95 °C
15. O=C(Nc1nc2ccc(C(F)(F)F)cc2s1)c1c(F)cccc1Cl
265 to 270 °C
16. CNC(=C[N+](=O)[O-])NCCSCc1ccccn1
112 to 113 °C
17. CCC(CC)c1ccc(Cl)c2nc(Cl)n(C)c12
94 to 95 °C
18. CC(C)N1N=C(c2ccc3c(c2)CCN(C2CCC2)CC3)CCC1=O
140 to 141 °C
19. CC(=CC(=O)Nc1ccccc1OCCCC(=O)O)c1ccc2c(ccn2C(c2ccccc2)c2ccccc2)c1
158 to 162 °C
20. CCN(CC(F)(F)F)c1cccc([N+](=O)[O-])c1
66 °C
21. COn1cc(-c2ccccc2)c(=O)c(-c2ccccc2)c1
165 °C
22. COc1cc2[nH]c(=O)n(-c3ccccc3C)c(=O)c2cc1OC
282 to 284 °C
23. CCCCCCCCCCCCCCCCc1cc2c(s1)-n1c(C)nnc1CN=C2c1ccccc1Cl
58 to 60 °C
24. O=C1c2ccccc2CCC1CN1CCC2(CC1)C(=O)NCN2c1ccccc1 (configuration not stated)
170 to 173 °C
25. CCCc1cc(OCc2ccc(C(=O)O)cc2)c2ccccc2n1
225 to 227 °C
26. OCCc1c[nH]c2ccc(O)cc12
98 to 102 °C
27. CCOC(=O)CS(=O)CCNC(=O)OCC (configuration not stated)
73.8 to 77 °C
28. CC(O)c1ccc(C2CCCCC2)cc1 (configuration not stated)
81.5 to 82.5 °C
29. CNC(=O)Oc1ccc(C2CCC(=O)N2CCN2CCOCC2)cc1 (configuration not stated)
119 to 120 °C
30. CCCCCCCCCCCCCCCCSC(N)C(CN)C(=O)OC(C)(C)C (configuration not stated)
46 to 47 °C
31. CCCCCCCCCCCCC(C(=O)O)C(O)(CC(=O)O)C(=O)O (configuration not stated)
75.4 to 76.1 °C
32. Cc1ccccc1C(NCC(=O)Nc1c(C(C)C)cccc1C(C)C)c1ccccc1 (configuration not stated)
163 to 164 °C
33. Cc1oc(-c2ccccc2)nc1CC=Cc1ccc(CCC2OC(=O)NC2=O)cc1 (configuration not stated)
175 to 176 °C
34. CC1(C)OC(=O)Nc2ccc(-c3ccc(C#N)o3)cc21
257 to 260 °C
35. CC1(C(F)(F)F)C(=O)NC(=O)NC1=O
205 to 206 °C
36. Cn1cnc(-c2ccc(NC(=C3C(=O)Oc4ccccc43)c3ccc(C(C)(C)N)cc3)cc2)c1
> 280 °C
37. Cc1cc(C)c(C(O)c2ccc(C(C)C)cc2)c(O)c1 (configuration not stated)
103 to 104 °C
38. Cc1cc(-c2nnc3c4ccccc4c(OCc4nncn4C)nn23)no1
261 to 263 °C
39. Cc1ccc(-c2ncnc(-c3cccc(C(=O)O)c3)n2)cc1
298 to 300 °C
40. COc1cccc(S(=O)(=O)Nc2ccc(Cl)nc2I)c1
154 °C
41. Cc1noc(C)c1COc1cc(-n2c(=O)cc(C(F)(F)F)n(C)c2=O)c(F)cc1Cl
120 to 123 °C
42. NCC1N=C(c2ccccc2F)c2ccccc2NC1=O (racemic)
168 to 169 °C
